- experimental_details: in vivo
- Design: species or system mice
- experimental_setup: male, NOD.Cg-Rag1tm1Mom Il2rgtm1Wjl/SzJ (NRG), mouse, iv, total radioactivity, Biodistribution: Pancreas
Where a SMILES comes first, the peptide text is derived from it. Bridges are numbered along the chain shown (N, C = ends). [ ]: non-standard residue; d: D form. The star is where a group is joined. X1 = O=C(O)CN1CCN(CC(=O)O)CCN(CC(=O)N[C@@H](CS(=O)(=O)O)C(=O)N[C@@H](CCCCNC(=O)CCCc2ccc(I)cc2)C(=O)*)CCN(CC(=O)O)CC1; 2Nal = N[C@@H](Cc1ccc2ccccc2c1)C(=O)O; Lys(iPr) = CC(C)NCCCC[C@H](N)C(=O)O

compound: CC(C)NCCCC[C@H](NC(=O)[C@H]1CCC(=O)N[C@@H](CCCCNC(=O)[C@H](CCCCNC(=O)CCCc2ccc(I)cc2)NC(=O)[C@H](CS(=O)(=O)O)NC(=O)CN2CCN(CC(=O)O)CCN(CC(=O)O)CCN(CC(=O)O)CC2)C(=O)N[C@@H](Cc2ccc(O)cc2)C(=O)N[C@@H](CCCCNC(C)C)C(=O)N[C@H](CCCNC(=N)N)C(=O)N[C@@H](Cc2ccc3ccccc3c2)C(=O)N[C@H](C)C(=O)N1)C(N)=O [[^68Ga]Ga-BL34L11, metal not drawn] (K(X1)Y[Lys(iPr)][dR][2Nal][dA][dE][Lys(iPr)]-NH2; lactam N-7)
tissue uptake at 3 h, %ID/g: 1.42

====

- experimental_details: in vivo
- Set-up: species or system mice
- experimental_setup: male, NOD.Cg-Rag1tm1Momll2rgtm1Wjl/SzJ (NRG), mouse, iv, total radioactivity, Biodistribution: Testes
Where a SMILES comes first, the peptide text is derived from it. Bridges are numbered along the chain shown (N, C = ends). [ ]: non-standard residue; d: D form. The star is where a group is joined. X3 = O=C(O)CN1CCN(CC(=O)O)CCN(CC(=O)N[C@@H](CS(=O)(=O)O)C(=O)N[C@@H](CCCCNC(=O)CCCc2ccc(Br)cc2)C(=O)*)CCN(CC(=O)O)CC1; X1 = O=C(O)CN1CCN(CC(=O)O)CCN(CC(=O)N[C@@H](CS(=O)(=O)O)C(=O)N[C@@H](CCCCNC(=O)CCCc2ccc(I)cc2)C(=O)*)CCN(CC(=O)O)CC1; 2Nal = N[C@@H](Cc1ccc2ccccc2c1)C(=O)O; Lys(iPr) = CC(C)NCCCC[C@H](N)C(=O)O
quantity: tissue uptake at 120 h

molecule: CC(C)NCCCC[C@H](NC(=O)[C@H]1CCC(=O)N[C@@H](CCCCNC(=O)[C@H](CCCCNC(=O)CCCc2ccc(Br)cc2)NC(=O)[C@H](CS(=O)(=O)O)NC(=O)CN2CCN(CC(=O)O)CCN(CC(=O)O)CCN(CC(=O)O)CC2)C(=O)N[C@@H](Cc2ccc(O)cc2)C(=O)N[C@@H](CCCCNC(C)C)C(=O)N[C@H](CCCNC(=N)N)C(=O)N[C@@H](Cc2ccc3ccccc3c2)C(=O)N[C@H](C)C(=O)N1)C(N)=O [[^177Lu]Lu-BL34L20, metal not drawn] (K(X3)Y[Lys(iPr)][dR][2Nal][dA][dE][Lys(iPr)]-NH2; lactam N-7)
result: 0.56 %ID/g
//
molecule: CC(C)NCCCC[C@H](NC(=O)[C@H]1CCC(=O)N[C@@H](CCCCNC(=O)[C@H](CCCCNC(=O)CCCc2ccc(I)cc2)NC(=O)[C@H](CS(=O)(=O)O)NC(=O)CN2CCN(CC(=O)O)CCN(CC(=O)O)CCN(CC(=O)O)CC2)C(=O)N[C@@H](Cc2ccc(O)cc2)C(=O)N[C@@H](CCCCNC(C)C)C(=O)N[C@H](CCCNC(=N)N)C(=O)N[C@@H](Cc2ccc3ccccc3c2)C(=O)N[C@H](C)C(=O)N1)C(N)=O [[^177Lu]Lu-BL34L11, metal not drawn] (K(X1)Y[Lys(iPr)][dR][2Nal][dA][dE][Lys(iPr)]-NH2; lactam N-7)
result: 2.04 %ID/g

====

- experimental_details: in vivo
- Parameters: species or system mice
- experimental_setup: male, NOD.Cg-Rag1tm1Mom Il2rgtm1Wjl/SzJ (NRG), mouse, iv, total radioactivity, Biodistribution: Z138 Tumor
Where a SMILES comes first, the peptide text is derived from it. Bridges are numbered along the chain shown (N, C = ends). [ ]: non-standard residue; d: D form. The star is where a group is joined. X4 = O=C(O)CN1CCN(CC(=O)O)CCN(CC(=O)N[C@@H](CS(=O)(=O)O)C(=O)NCCCC[C@H](NC(=O)CNC(=O)CCCc2ccc(Cl)cc2)C(=O)*)CCN(CC(=O)O)CC1; 2Nal = N[C@@H](Cc1ccc2ccccc2c1)C(=O)O; Lys(iPr) = CC(C)NCCCC[C@H](N)C(=O)O

compound: CC(C)NCCCC[C@H](NC(=O)[C@H]1CCC(=O)N[C@@H](CCCCNC(=O)[C@H](CCCCNC(=O)[C@H](CS(=O)(=O)O)NC(=O)CN2CCN(CC(=O)O)CCN(CC(=O)O)CCN(CC(=O)O)CC2)NC(=O)CNC(=O)CCCc2ccc(Cl)cc2)C(=O)N[C@@H](Cc2ccc(O)cc2)C(=O)N[C@@H](CCCCNC(C)C)C(=O)N[C@H](CCCNC(=N)N)C(=O)N[C@@H](Cc2ccc3ccccc3c2)C(=O)N[C@H](C)C(=O)N1)C(N)=O [[68Ga]Ga-BL34T1, metal not drawn] (K(X4)Y[Lys(iPr)][dR][2Nal][dA][dE][Lys(iPr)]-NH2; lactam N-7)
tissue uptake at 1 h: 12.2 %ID/g

====

- experimental_details: in vivo
- Parameters: species or system mice
- experimental_setup: male, NOD.Cg-Rag1tm1Mom Il2rgtm1Wjl/SzJ (NRG), mouse, iv, total radioactivity, Biodistribution: Stomach
Where a SMILES comes first, the peptide text is derived from it. Bridges are numbered along the chain shown (N, C = ends). Side-chain parts run from the residue outwards. [ ]: non-standard residue; d: D form. The star is where a group is joined. DOTA = O=C(O)CN1CCN(CC(=O)O)CCN(CC(=O)*)CCN(CC(=O)O)CC1; NMeLys(iPr) = CN[C@@H](CCCCNC(C)C)C(=O)O; 2Nal = N[C@@H](Cc1ccc2ccccc2c1)C(=O)O; Lys(iPr) = CC(C)NCCCC[C@H](N)C(=O)O; Cya = N[C@@H](CS(=O)(=O)O)C(=O)O
quantity: tissue uptake at 1 h (%ID/g)

molecule: CC(C)NCCCC[C@H](NC(=O)[C@H]1CCC(=O)N[C@@H](CCCCNC(=O)[C@H](CS(=O)(=O)O)NC(=O)CN2CCN(CC(=O)O)CCN(CC(=O)O)CCN(CC(=O)O)CC2)C(=O)N[C@@H](Cc2ccc(O)cc2)C(=O)N(C)[C@@H](CCCCNC(C)C)C(=O)N[C@H](CCCNC(=N)N)C(=O)N[C@@H](Cc2ccc3ccccc3c2)C(=O)N[C@H](C)C(=O)N1)C(N)=O [[^68Ga]Ga-BL34N1, metal not drawn] (K([Cya-DOTA])Y[NMeLys(iPr)][dR][2Nal][dA][dE][Lys(iPr)]-NH2; lactam N-7)
recorded_number: 0.05

====

- experimental_details: in vivo
- Parameters: species or system mice
- experimental_setup: male, NOD.Cg-Rag1tm1Mom Il2rgtm1Wjl/SzJ (NRG), mouse, iv, total radioactivity, Biodistribution: Spleen
Where a SMILES comes first, the peptide text is derived from it. Bridges are numbered along the chain shown (N, C = ends). [ ]: non-standard residue; d: D form. The star is where a group is joined. X5 = O=C(O)CN1CCN(CC(=O)O)CCN(CC(=O)N[C@@H](CS(=O)(=O)O)C(=O)N[C@@H](CCCCNC(=O)CCCc2ccc(Cl)cc2)C(=O)*)CCN(CC(=O)O)CC1; X6 = COc1ccc(CCCC(=O)NCCCC[C@H](NC(=O)[C@H](CS(=O)(=O)O)NC(=O)CN2CCN(CC(=O)O)CCN(CC(=O)O)CCN(CC(=O)O)CC2)C(=O)*)cc1; 2Nal = N[C@@H](Cc1ccc2ccccc2c1)C(=O)O; Lys(iPr) = CC(C)NCCCC[C@H](N)C(=O)O

compound: CC(C)NCCCC[C@H](NC(=O)[C@H]1CCC(=O)N[C@@H](CCCCNC(=O)[C@H](CCCCNC(=O)CCCc2ccc(Cl)cc2)NC(=O)[C@H](CS(=O)(=O)O)NC(=O)CN2CCN(CC(=O)O)CCN(CC(=O)O)CCN(CC(=O)O)CC2)C(=O)N[C@@H](Cc2ccc(O)cc2)C(=O)N[C@@H](CCCCNC(C)C)C(=O)N[C@H](CCCNC(=N)N)C(=O)N[C@@H](Cc2ccc3ccccc3c2)C(=O)N[C@H](C)C(=O)N1)C(N)=O [[^68Ga]Ga-BL34L16, metal not drawn] (K(X5)Y[Lys(iPr)][dR][2Nal][dA][dE][Lys(iPr)]-NH2; lactam N-7)
tissue uptake at 1 h / %ID/g: 2.48
--
compound: COc1ccc(CCCC(=O)NCCCC[C@H](NC(=O)[C@H](CS(=O)(=O)O)NC(=O)CN2CCN(CC(=O)O)CCN(CC(=O)O)CCN(CC(=O)O)CC2)C(=O)NCCCC[C@@H]2NC(=O)CC[C@H](C(=O)N[C@@H](CCCCNC(C)C)C(N)=O)NC(=O)[C@@H](C)NC(=O)[C@H](Cc3ccc4ccccc4c3)NC(=O)[C@@H](CCCNC(=N)N)NC(=O)[C@H](CCCCNC(C)C)NC(=O)[C@H](Cc3ccc(O)cc3)NC2=O)cc1 [[^68Ga]Ga-BL34L7, metal not drawn] (K(X6)Y[Lys(iPr)][dR][2Nal][dA][dE][Lys(iPr)]-NH2; lactam N-7)
tissue uptake at 1 h / %ID/g: 0.59
